Target: T1, Human CD73 on cells (MDA-MB-231, Jurkat CD73 knock-in, NCI-H322) (human, UniProt P21589 27-549)
T1 sequence: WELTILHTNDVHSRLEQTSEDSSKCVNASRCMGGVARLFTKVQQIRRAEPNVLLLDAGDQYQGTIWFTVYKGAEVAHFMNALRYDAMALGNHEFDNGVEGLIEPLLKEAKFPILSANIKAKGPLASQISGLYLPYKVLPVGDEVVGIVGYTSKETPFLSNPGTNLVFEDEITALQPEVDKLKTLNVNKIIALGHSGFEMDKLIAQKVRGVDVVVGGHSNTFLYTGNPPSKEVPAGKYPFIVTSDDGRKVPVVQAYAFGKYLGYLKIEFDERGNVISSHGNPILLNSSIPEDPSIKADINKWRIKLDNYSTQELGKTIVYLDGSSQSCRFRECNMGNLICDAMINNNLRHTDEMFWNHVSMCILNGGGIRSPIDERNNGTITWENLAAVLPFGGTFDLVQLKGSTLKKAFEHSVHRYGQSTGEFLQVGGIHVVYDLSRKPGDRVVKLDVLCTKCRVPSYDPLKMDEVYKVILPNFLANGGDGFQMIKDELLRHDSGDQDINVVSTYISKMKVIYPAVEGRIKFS
Experiment: cell-based or functional assay
Attribute measured: Enzyme Inhibition, MDA-MB-231, 1/EC50 (nM)

Binder: CD730008 (antibody, IgG1, V domains shown, IgG1-TM format; also called CD730008 antibody) VH: EVQLLETGGGLVQPGGSLRLSCAASGFTFSSYAMSWVRQAPGKGLEWVSAISGSGGSTYYADSVKGRFTISRDNSKNTLYLQMNSLRAEDTAVYYCARGNYGNLDHWGKGTLVTVSS VL: QSVLTQPPSVSVSPGQTASITCSGDKVGDKYASWYQQKPGQSPVLVIYQDRKRPSGIPERFSGSNSGNTATLTISGTQPMDEADYYCQAWDSSHWVFGGGTKLTVL
Reported measurement: 0.11 nM⁻¹

Binder: CD730069 (antibody, V domains shown) VH: EVQLLESGGGLVQPGGSLRLSCAASGFTFSEYQMGWVRQAPGKGLEWVSYIRSSGGQTIYADSVKGRFTISRDNSKNTLYLQMNSLRAEDTAVYYCARRTYSSGWHIDYWGQGTLVTVSS VL: DIQMTQSPDSLSASVGDRVTITCRASQSISRYLNWYQQKPGKAPKLLIYGASSLQSGVPSRFSGSGSGTDFSLTISSLQLEDFATYYCQQSYRTPLTFGGGTKVEIQ
Reported measurement: 0.0013 nM⁻¹

Binder: CD730021 (antibody, V domains shown, IgG1-TM format; also called CD730021 antibody) VH: QVQLQESGPGLVRPSETLSLTCTVSGGSISSSSYYWAWVRQSPGKGLEWIGNIYYRGSTYYNPSLKSRVTMSVDMSKHQFSLKLSSLNAADTAVYYCASLYSGTYVFDYWGRGTLVTVSS VL: QSVLTQPPSASGTPGQRVTISCSGSRPNIGGNTVNWYQQLPGAAPKLLIYSNSQRPSGVPDRFSGSKYGTSASLAISGLQSDDEADYYCGTWDDSLNGPVFGRGTKLTVL
Reported measurement: 0.0095 nM⁻¹

Binder: CD730068 (antibody, V domains shown) VH: EVQLLESGGGLVQPGGSLRLSCAASGFTFSNYIMGWVRQAPGKGLEWVSSISSSGGATIYADSVKGRFTISRDNSKNTLYLQMNSLRAEDMAVYYCAKDHLGGHGMDVWGQGTTVTVSS VL: DIQMTQSPSSLSASVGDRVTITCRASQDISNYLAWFQQKPGKAPKSLIFAASSLESGVPSKFSGSGSGTDFTLTISSLQPEDSATYYCQQYNSYPLTFGGGTKVEIK
Reported measurement: 0 nM⁻¹

Binder: CD730042 (antibody, V domains shown, IgG1-TM format; also called CD730042 antibody) VH: GVQLVQSGGGLVQPGGSLRLSCAASGFTFSSYGMHWVRQAPGKGLEWVAVISYDGSIKYYADSVKGRFTISRDDSKNALYLQMNSLRAEDTAVYYCSTLSGSYGYFDYWGRGTLVTVSS VL: QSVLTQPASVSGSPGQSITISCAGTSSDVGGYNYVSWYQQHPGKAPKLMIYEGSKRPSGVSNRFSGSKSGNTASLTISGLQAEDEADYYCSSYTTRSTRVFGGGTKLTVL
Reported measurement: 0.0032 nM⁻¹

Value of measured Enzyme Inhibition, MDA-MB-231, 1/EC50 (nM) for the entry CD730047 (antibody, V domains shown, IgG1-TM format; also called CD730047 antibody) VH: EVQLVQSGGGVVQPGRSLRLSCAASGFTFSSYGMHWVRQAPGKGLEWVAVISYDGSIKYYADSVKGRFAISRDNAKNTLYLQMNSLRREDTAMYYCASGLTGVAGALGVWGRGTLVTVSS VL: QSVLTQPPSASGAPGQRVTISCSGSSSNIGSNTVNWYQRLPGAAPQLLIYNNDQRPSGIPDRFSGSKSGTSGSLVISGLQSEDEADYYCAAWDDSLSGNVFGTGTKVTVL : 0.027 nM⁻¹

Every entry's value here was drawn from patent US20230340152A1.
